# Test system: E. coli
# Experiment Description: Checkerboard microdilution with sodium bicarbonate against E. coli
# Assay type: cell-based, Escherichia coli
Assay Endpoint: interaction with sodium bicarbonate (checkerboard)

See these solved cases before continuing.
1) CC[C@H]1OC(=O)[C@H](C)[C@@H](O[C@H]2C[C@@](C)(OC)[C@@H](O)[C@H](C)O2)[C@H](C)[C@@H](O[C@@H]2O[C@H](C)C[C@H](N(C)C)[C@H]2O)[C@](C)(O)C[C@@H](C)/C(=N\OCOCCOC)[C@H](C)[C@@H](O)[C@]1(C)O :: synergistic interactions
2) CO[C@@H]1[C@@H](OC(N)=O)[C@@H](O)[C@H](Oc2ccc3c(O)c(NC(=O)c4ccc(O)c(CC=C(C)C)c4)c(=O)oc3c2C)OC1(C)C :: suppressed
3) [H]/N=C(/N)N[C@H]1[C@H](O)[C@@H](O)[C@H](O[C@@H]2O[C@@H](C)[C@](O)(C=O)[C@H]2O[C@@H]2O[C@@H](CO)[C@H](O)[C@@H](O)[C@@H]2NC)[C@@H](N/C(N)=N\[H])[C@@H]1O :: synergistic interactions
4) C[C@@H]1O[C@@H]1P(=O)(O)O :: suppressed

Now consider the entry below.
// interaction with sodium bicarbonate (checkerboard) value for CN(C)C(=O)C(CCN1CCC(O)(c2ccc(Cl)cc2)CC1)(c1ccccc1)c1ccccc1 [loperamide] : synergistic interactions

====

# System: S. aureus
# Experiment Description: Checkerboard microdilution with sodium bicarbonate against S. aureus
# Format: cell-based, Staphylococcus aureus
Assay Endpoint: interaction with sodium bicarbonate (checkerboard)

1. CC1=CCCC2C1CCC(C)C2(C)CC/C(C)=C/Cn1c[n+](C)c2c(N)ncnc21.[Cl-] (stereo not drawn) :: synergistic interactions
2. [H]/N=C(/N)N[C@H]1[C@H](O)[C@@H](O)[C@H](O[C@@H]2O[C@@H](C)[C@](O)(C=O)[C@H]2O[C@@H]2O[C@@H](CO)[C@H](O)[C@@H](O)[C@@H]2NC)[C@@H](N/C(N)=N\[H])[C@@H]1O :: synergistic interactions
3. CC(C)[C@@H]1NC(=O)[C@H](C)OC(=O)[C@@H](C(C)C)NC(=O)[C@@H](C(C)C)OC(=O)[C@H](C(C)C)NC(=O)[C@H](C)OC(=O)[C@@H](C(C)C)NC(=O)[C@@H](C(C)C)OC(=O)[C@H](C(C)C)NC(=O)[C@H](C)OC(=O)[C@@H](C(C)C)NC(=O)[C@@H](C(C)C)OC1=O :: synergistic interactions

====

# System: E. coli
# Experiment Description: microbe, parasite or virus in culture
# Format: cell-based, Escherichia coli
# Experimental Context: Escherichia coli, 18 h, antibiotic agents; MHB in the absence of sodium bicarbonate; read-out: MIC, E. coli, MHB−
# Experimental: In the following experiments, bacterial cells were cultured in 96-well microtiter plates in cation-adjusted Mueller-Hinton Broth (MHB) for 18 h at 37° C. The main strains used were E. coli (K-12 BW25113) (placed in stationary incubator) and S. aureus (Newman Strain) (incubated at 250 r.p.m). […]
Please note: MIC exactly at 4 µg/mL is rule not met. Only values below 4 µg/mL get rule met.

These recorded examples may help you get a feel for the data.
1. CC(=O)O[C@H]1C[C@@]2(C)[C@@H](C[C@@H](O)[C@H]3[C@@]4(C)CC[C@@H](O)[C@@H](C)[C@@H]4CC[C@@]32C)/C1=C(\CCC=C(C)C)C(=O)O :: rule not met
2. [H]/N=C(/N)N[C@H]1[C@H](O)[C@@H](O)[C@H](O[C@@H]2O[C@@H](C)[C@](O)(C=O)[C@H]2O[C@@H]2O[C@@H](CO)[C@H](O)[C@@H](O)[C@@H]2NC)[C@@H](N/C(N)=N\[H])[C@@H]1O :: rule met
3. CCn1cc(C(=O)O)c(=O)c2cc(F)c(N3CCNC(C)C3)c(F)c21 (stereo not drawn) :: rule met
4. C[C@@H]1CN(c2c(F)c(N)c3c(=O)c(C(=O)O)cn(C4CC4)c3c2F)C[C@H](C)N1 :: rule not met
5. CC1CCc2c(N3CCC(O)CC3)c(F)cc3c(=O)c(C(=O)O)cn1c23 (stereo not drawn) :: rule not met

Switching to the query record.
Incoming: Please let me know if "CCC[C@@H]1C[C@@H](C(=O)N[C@@H]([C@H]2O[C@H](SC)[C@H](O)[C@@H](O)[C@H]2O)[C@@H](C)O)N(C)C1" shows MIC below 4 µg/mL.
Outgoing: rule not met

====

# System: S. aureus
# Experiment Description: Checkerboard microdilution with sodium bicarbonate against S. aureus
# Type: cell-based, Staphylococcus aureus
# Protocol: In the following experiments, bacterial cells were cultured in 96-well microtiter plates in cation-adjusted Mueller-Hinton Broth (MHB) for 18 h at 37° C. The main strains used were E. coli (K-12 BW25113) (placed in stationary incubator) and S. aureus (Newman Strain) (incubated at 250 r.p.m). […] The effect of sodium bicarbonate on the activity of various antibacterial agents was investigated. […] Plates were incubated at 37° C. for 18 hours, and optical density was read at 600 nm. […]
Assay Endpoint: interaction with sodium bicarbonate (checkerboard)

1) c1cc2c(cc1C1CCCCC1)c1c3n2CCN=C3CCC1 :: synergistic interactions
2) CC[C@H]1OC(=O)[C@H](C)[C@@H](O[C@H]2C[C@@](C)(OC)[C@@H](O)[C@H](C)O2)[C@H](C)[C@@H](O[C@@H]2O[C@H](C)C[C@H](N(C)C)[C@H]2O)[C@](C)(O)C[C@@H](C)/C(=N\OCOCCOC)[C@H](C)[C@@H](O)[C@]1(C)O :: synergistic interactions
3) COc1ccc(-c2n(CC(=O)OC3CC(C)CCC3C(C)C)c3ccccc3[n+]2C)cc1.[Cl-] (stereo not drawn) :: synergistic interactions

====

# Test system: E. coli
# Experiment Description: microbe, parasite or virus in culture
# Format: cell-based, Escherichia coli
# Experimental Context: Escherichia coli, 18 h, antibiotic agents; MHB in the absence of sodium bicarbonate; read-out: MIC, E. coli, MHB−
Please note: MIC exactly at 30 µg/mL is N. Only values below 30 µg/mL get Y.

1. N[C@@H](C(=O)N[C@@H]1C(=O)N2C(C(=O)O)=C(Cl)CS[C@H]12)c1ccccc1 :: Y
2. CC[C@H]1OC(=O)[C@H](C)[C@@H](O[C@H]2C[C@@](C)(OC)[C@@H](O)[C@H](C)O2)[C@H](C)[C@@H](O[C@@H]2O[C@H](C)C[C@H](N(C)C)[C@H]2O)[C@](C)(O)C[C@@H](C)/C(=N\OCOCCOC)[C@H](C)[C@@H](O)[C@]1(C)O :: N
3. C/C(=C\C(=O)OCCCCCCCCC(=O)O)C[C@@H]1OC[C@H](C[C@@H]2O[C@H]2[C@@H](C)[C@H](C)O)[C@@H](O)[C@H]1O :: N

Incoming: Please let me know if COc1c(N2CCNC(C)C2)c(F)cc2c(=O)c(C(=O)O)cn(C3CC3)c12 (stereo not drawn) shows MIC below 30 µg/mL.
Outgoing: Y

Incoming: Please let me know if "CC[C@H]1OC(=O)[C@H](C)C(=O)[C@H](C)[C@@H](O[C@@H]2O[C@H](C)C[C@H](N(C)C)[C@H]2O)[C@](C)(OC)C[C@@H](C)C(=O)[C@H](C)[C@H]2N(CCCCn3cnc(-c4cccnc4)c3)C(=O)O[C@]12C" shows MIC below 30 µg/mL.
Outgoing: N

Incoming: Please let me know if "NC[C@H]1O[C@H](O[C@H]2[C@H](O)[C@@H](O[C@H]3O[C@H](CO)[C@@H](O)[C@H](N)[C@H]3O)[C@H](N)C[C@@H]2N)[C@H](N)C[C@@H]1O" shows MIC below 30 µg/mL.
Outgoing: Y

Incoming: Please let me know if "CC1(C)S[C@@H]2[C@H](NC(=O)[C@H](C(=O)O)c3ccsc3)C(=O)N2[C@H]1C(=O)O" shows MIC below 30 µg/mL.
Outgoing: N

Incoming: Please let me know if "CC[C@H]1OC(=O)[C@H](C)[C@@H](O[C@H]2C[C@@](C)(OC)[C@@H](O)[C@H](C)O2)[C@H](C)[C@@H](O[C@@H]2O[C@H](C)C[C@H](N(C)C)[C@H]2O)[C@](C)(OC)C[C@@H](C)C(=O)[C@H](C)[C@@H](O)[C@]1(C)O" shows MIC below 30 µg/mL.
Outgoing: N

Incoming: Please let me know if "C=C[C@]1(C)C[C@@H](OC(=O)CO)[C@]2(C)[C@H](C)CC[C@]3(CCC(=O)[C@H]32)[C@@H](C)[C@@H]1O" shows MIC below 30 µg/mL.
Outgoing: N

Incoming: Please let me know if "NCC[C@H](O)C(=O)N[C@@H]1C[C@H](N)[C@@H](O[C@H]2O[C@H](CN)[C@@H](O)[C@H](O)[C@H]2O)[C@H](O)[C@H]1O[C@H]1O[C@H](CO)[C@@H](O)[C@H](N)[C@H]1O" shows MIC below 30 µg/mL.
Outgoing: Y

Incoming: Please let me know if "CCOc1ccc2ccccc2c1C(=O)N[C@@H]1C(=O)N2[C@@H]1SC(C)(C)[C@@H]2C(=O)O" shows MIC below 30 µg/mL.
Outgoing: Y

Incoming: Please let me know if "CO/N=C(\C(=O)N[C@@H]1C(=O)N2C(C(=O)O)=C(COC(C)=O)CS[C@H]12)c1csc(N)n1" shows MIC below 30 µg/mL.
Outgoing: Y

Incoming: Please let me know if "CCC[C@@H]1C[C@@H](C(=O)N[C@@H]([C@H]2O[C@H](SC)[C@H](O)[C@@H](O)[C@H]2O)[C@H](C)Cl)N(C)C1" shows MIC below 30 µg/mL.
Outgoing: N

Incoming: Please let me know if "Oc1cc(Cl)ccc1Oc1ccc(Cl)cc1Cl" shows MIC below 30 µg/mL.
Outgoing: Y

Incoming: Please let me know if NC(=O)c1ccccc1 [Benzamide] shows MIC below 30 µg/mL.
Outgoing: N
